Origin of values: the supplement of paper PMC10981050

System: OCI-AML2;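 note: after 48 h exposure read by CellTiter-Glo luminescence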
Experiment: cell viability relative to vehicle control; higher = less cytotoxic
Conditions: 10 µM; SRSF2 genotype: wt/wt
measured_property: cell viability (%)
Numeric only. Scale: %

Report cell viability for `CCCc1ccc(OCC(=O)N(Cc2nc(-c3cccnc3)no2)C(C)C)cc1` 83.9

Provide measured cell viability value, entry: Fc1ccc(C(c2ccc(F)cc2)N2CCN(C/C=C/c3ccccc3)CC2)cc1 [Flunarizine 2HCl] 26.7

Tell us which cell viability value is on record for `Cn1c(=O)cc(N2CCC[C@@H](N)C2)n(Cc2cc(F)ccc2C#N)c1=O` 102

For the molecule C[N+]1(C)CCCC1C(=O)[O-] (centres undefined) [Stachydrine] , report cell viability. 102

Give the reported cell viability for this molecule. CCOC(=O)N1CCC(CN(Cc2ccc(Cl)cc2)Cc2ccc([N+](=O)[O-])s2)C1 (centres undefined) [Stenabolic (SR9009)] 41.4

Identify measured cell viability associated with `C=CC(=O)Nc1cccc(Nc2nc(Nc3ccc(N4CCN(C(C)=O)CC4)cc3OC)ncc2C(F)(F)F)c1` 19

For `COc1c(-c2ccc3cc(NS(C)(=O)=O)ccc3c2)cc(-n2ccc(=O)[nH]c2=O)cc1C(C)(C)C` , write its cell viability. 90.5

Supply cell viability value. Item: O=C(O)C(Cc1c[nH]c2ccccc12)N1C(=O)c2ccccc2C1=O (centres undefined) 98.5

Tell me measured cell viability for `C[C@@H]1CC[C@@]2(OC1)O[C@H]1C[C@H]3[C@@H]4CC=C5C[C@@H](O[C@@H]6O[C@H](CO)[C@@H](O)[C@H](O[C@@H]7O[C@H](CO)[C@@H](O)[C@H](O)[C@H]7O)[C@H]6O[C@@H]6O[C@@H](C)[C@H](O)[C@@H](O)[C@H]6O)CC[C@]5(C)[C@H]4CC[C@]3(C)[C@H]1[C@@H]2C` please. 4.21

---

System: OCI-AML2;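 note: after 48 h exposure read by CellTiter-Glo luminescence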
Assay: cell viability relative to vehicle control; higher = less cytotoxic
Conditions: 10 µM; SRSF2 genotype: wt/wt
Where a name gives a salt, the structure may show the parent alone.
measured_property: cell viability (%)
Lab book: enter the figure in %, no units written.

Report cell viability for `CC(C)OC(=O)CCC/C=C\C[C@@H]1[C@@H](/C=C/[C@@H](O)COc2cccc(C(F)(F)F)c2)[C@H](O)C[C@@H]1O` 37.8

Assign cell viability to the following record: `Cc1nc(Nc2cnn(C3CCNCC3)c2)nc2c1N(C)C(=O)c1cc3ccccc3cc1N2C` 22

Return reported cell viability. Input compound: CC(C)=CCC[C@](C)(O[C@@H]1O[C@H](CO[C@@H]2OC[C@@H](O)[C@H](O)[C@H]2O)[C@@H](O)[C@H](O)[C@H]1O)[C@H]1CC[C@]2(C)[C@@H]1[C@H](O)C[C@@H]1[C@@]3(C)CC[C@H](O[C@@H]4O[C@H](CO)[C@@H](O)[C@H](O)[C@H]4O[C@@H]4O[C@H](CO)[C@@H](O)[C@H](O)[C@H]4O)C(C)(C)[C@@H]3CC[C@]12C [Ginsenoside Rb3] 101

Output measured cell viability for this item: Cc1cc(C2CCCCC2)n(O)c(=O)c1 [Ciclopirox ethanolamine] 18

Give recorded cell viability. CNCc1cc(-c2ccccc2F)n(S(=O)(=O)c2cccnc2)c1 [Vonoprazan Fumarate (TAK-438)] 85.7

State, in one line, measured cell viability of O=C(O[C@@H]1Cc2c(O)cc(O)cc2O[C@H]1c1cc(O)c(O)c(O)c1)c1cc(O)c(O)c(O)c1 [Gallocatechin gallate] 87.8

Note cell viability for the compound shown: `CC(C)OC(=O)CCC/C=C\C[C@@H]1[C@@H](CC[C@@H](O)CCc2ccccc2)[C@H](O)C[C@@H]1O` 98.3
